System: NIH3T3
Assay: Cytotoxic Profiling of Annotated Libraries Using Quantitative High-Throughput Screening (AID 1296008); also: % is scaled to controls: 0 for no effect and ±100 for the full control effect
Settings: Five cell lines viability, CellTiter-Glo ATP luminescence, 48-72 h; stronger effect = lower value
Results filed as inconclusive are left out. Where a SMILES comes first, the peptide text is derived from it. [ ]: non-standard residue; d: D form. The star is where a group is joined. Dolaproine = CO[C@@H]([C@@H]1CCCN1)[C@@H](C)C(=O)O; Dil = CC[C@H](C)[C@H](NC)[C@@H](CC(=O)O)OC; Doe = c1ccc(C[C@H](N*)c2nccs2)cc1; Aib = CC(C)(N)C(=O)O
Documented max response across a set of compounds

>  <COMPOUND>
CC1=CC2/C=C(\C)CCC(O)C(O)/C=C/C(=O)OC23C(=O)NC(CC(C)C)C3C1C (configuration not stated)

>  <max response, %>
-15.3

$$$$
>  <COMPOUND>
C=CC(C)(C)c1[nH]c2c(CC=C(C)C)cc(CC=C(C)C)cc2c1C[C@@H]1NC(=O)[C@H](C)NC1=O

>  <max response, %>
2.77

$$$$
>  <COMPOUND>
C[C@]12CC[C@H]3[C@@H](CCC4=C/C(=N/OCC(=O)O)CC[C@@]43C)[C@@H]1CC[C@@H]2O

>  <max response, %>
3.02

$$$$
>  <COMPOUND>
N#CC(O[C@@H]1O[C@H](CO)[C@@H](O)[C@H](O)[C@H]1O)c1ccccc1 (some centres not stated)

>  <max response, %>
1.1

$$$$
>  <COMPOUND>
C[N@@+]1(CC2CC2)CC[C@]23c4c5ccc(O)c4O[C@H]2C(=O)CC[C@@]3(O)[C@H]1C5

>  <max response, %>
2.77

$$$$
>  <COMPOUND>
C=C1[C@@H](O)[C@]2(O)OC[C@]34C2[C@]2(C)C(C[C@H]3OC(=O)[C@H](O)[C@@]14O)C(C)=CC(=O)[C@H]2O (some centres not stated)

>  <max response, %>
-5.4

$$$$
>  <COMPOUND>
Cc1cccc(NC(=O)N[C@H]2CN(C)c3ccccc3C(c3ccccc3)=N2)c1

>  <max response, %>
-5.29

$$$$
>  <COMPOUND>
CO[C@@H]1[C@H](O)[C@@H](O[C@@H]2C[C@H]3CC[C@@H]4C(CC[C@]5(C)[C@@H](C6=CC(=O)OC6)CC[C@]45O)[C@@]3(C)[C@H](O)C2)O[C@H](C)[C@@H]1O (some centres not stated)

>  <max response, %>
3.09

$$$$
>  <COMPOUND>
CC(C)(C)[C@]1(O)C[C@@H]2OC(=O)C[C@@]23C(=O)O[C@@H]2OC(=O)[C@@H](O)[C@]213

>  <max response, %>
3.76

$$$$
>  <COMPOUND>
C[C@]12CC[C@H](O[C@@H]3O[C@H](CO)[C@@H](O)[C@H](O)[C@H]3O[C@@H]3O[C@H](CO)[C@@H](O)[C@H](O)[C@H]3O)CC1=CC[C@@H]1[C@@H]2CC[C@]2(C)[C@@H](C3=CC(=O)OC3)CC[C@]12O

>  <max response, %>
1.49

$$$$
>  <COMPOUND>
C[C@@H]1C[C@@H](O)[C@]2(O)O[C@@H]3C[C@@]4(C=O)C(CC[C@@H]5C4CC[C@]4(C)[C@@](O)(C6=CC(=O)OC6)CC[C@]54O)C[C@H]3OC2O1 (some centres not stated)

>  <max response, %>
-15.7

$$$$
>  <COMPOUND>
COC1CC(OC2CCC3(C=O)C(CCC4C3CCC3(C)C(C5=CC(=O)OC5)CCC43O)C2)OC(C)C1O (configuration not stated)

>  <max response, %>
0.727

$$$$
>  <COMPOUND>
CC1CCCCCC(=O)c2c(O)cc(O)cc2CC(=O)O1 (configuration not stated)

>  <max response, %>
2.84

$$$$
>  <COMPOUND>
NCCCCCNC1(c2ccccc2)CCCCC1

>  <max response, %>
-1.15

$$$$
>  <COMPOUND>
N#Cc1ccccc1-c1cc(-c2ccccn2)cn(-c2ccccc2)c1=O

>  <max response, %>
-0.815

$$$$
>  <COMPOUND>
O=C1N[C@@H](Cc2ccccc2)CN2CCCC[C@@H]12

>  <max response, %>
1.01

$$$$
>  <COMPOUND>
CC[C@H]1C2CC3[C@@H]4N(C)c5ccccc5[C@]45C[C@@H]([C@H]2[C@H]5O)N3[C@H]1O

>  <max response, %>
4.15

$$$$
>  <COMPOUND>
CC(=O)NCCCOc1ccc(C(=O)N2CCC(N3C(=O)CCc4ccccc43)CC2)cc1

>  <max response, %>
-14

$$$$
>  <COMPOUND>
C[C@]12CC[C@H](O)C[C@H]1CC[C@@H]1[C@@H]2[C@H](O)C(=O)[C@]2(C)[C@@H](c3ccc(=O)oc3)CC[C@]12O

>  <max response, %>
-1.67

$$$$
>  <COMPOUND>
C=CCN1CCC2(C)c3cc(O)ccc3C[C@H]1[C@H]2C

>  <max response, %>
1.43

$$$$
>  <COMPOUND>
CO[C@H]1C[C@H](O[C@H]2CC[C@]3(CO)[C@H]4CC[C@]5(C)[C@@H](C6=CC(=O)OC6)CC[C@]5(O)[C@@H]4CC[C@]3(O)C2)O[C@H](C)[C@H]1O

>  <max response, %>
1.22

$$$$
>  <COMPOUND>
C[C@H]1O[C@@H](O[C@H]2CC[C@]3(CO)C4CC[C@]5(C)[C@@H](C6=CC(=O)OC6)CC[C@]5(O)[C@@H]4CC[C@H]3C2)[C@H](O)[C@H](O)[C@@H]1O[C@@H]1O[C@H](CO)[C@@H](O)[C@H](O)[C@H]1O (some centres not stated)

>  <max response, %>
-2.67

$$$$
>  <COMPOUND>
CN(C(=O)C(c1ccccc1)c1ccccc1)[C@H](CN1CC[C@H](O)C1)c1ccccc1

>  <max response, %>
3.64

$$$$
>  <COMPOUND>
CCCCCn1cc(C(=O)c2cccc3ccccc23)c2ccccc21

>  <max response, %>
4.48

$$$$
>  <COMPOUND>
C=CCN1CC[C@]23c4c5ccc(O)c4O[C@H]2[C@@H](O)CC[C@@]3(O)[C@H]1C5

>  <max response, %>
-28.6

$$$$
>  <COMPOUND>
CCC1(O)CCC2C3CCC4=CC(=O)CCC4C3CCC21CC (configuration not stated)

>  <max response, %>
1.71

$$$$
>  <COMPOUND>
CC[C@H](C)[C@@H]([C@@H](CC(=O)N1CCC[C@H]1[C@H](OC)[C@@H](C)C(=O)N[C@@H](Cc1ccccc1)c1nccs1)OC)N(C)C(=O)[C@@H](NC(=O)C(C)(C)N)C(C)C (H-[Aib]V[Dil][Dolaproine]-Doe)

>  <max response, %>
-54.1

$$$$
